System: P. falciparum 3D7 growth, pLDH absorbance
Experiment: blood-stage malaria parasite growth potency – strain 3D7, dose response (AID 2305)
I'd be grateful if you could share measured IC50 for these entries.
One number for each entry, in nM.

Need IC50 for each of these compounds.
1. O=P(O)(O)Oc1c(Br)cc(Br)cc1-c1cc(Br)cc(Br)c1O
2. Cc1cccc2[nH]c(-c3cccc(-c4cccc(C(=O)N5CCCCC5CN5CCC(O)C5)c4)c3)nc12 (centres undefined)
3. O=C(CCCCCNC(=O)c1ccc(O)c(-c2ccc(Cl)c(Cl)c2)c1)NCc1cccc(C(F)(F)F)c1
4. Cc1cccc2[nH]c(-c3ccc(-c4ccc(NC(=O)CN5CCN(C)CC5)cc4)s3)nc12

Return:
1. 170
2. 460
3. 730
4. 1020

====

Tested on: P. falciparum 3D7 growth, pLDH absorbance
Experiment: blood-stage malaria parasite growth potency – strain 3D7, dose response (AID 2305)
reported endpoint: IC50
The reply must contain the numeric value and, after it, the unit.

compound: CCCCCCCCc1[nH]c(C)c(Br)c(=O)c1Br
recorded result: 0.18 µM
//
compound: CCN(CC)CCCC(C)Nc1c(-c2ccc(C)cc2)cnc2ccccc12 (centres undefined)
recorded result: 0.2 µM
//
compound: O=C(Nc1cccc(-c2ccc(-c3nc4ccccc4[nH]3)cc2)c1)c1ccncc1
recorded result: 0.53 µM
//
compound: Cc1cccc2[nH]c(-c3ccc(-c4cccc(NC(=O)Nc5cccc(C#N)c5)c4)cc3)nc12
recorded result: 0.54 µM
//
compound: CC(C)CCNCC(O)Cn1c2ccc(Cl)cc2c2cc(Cl)ccc21 (centres undefined)
recorded result: 0.45 µM
//
compound: CC1=C(C(=O)OCCOCc2ccccc2)C(c2ccccc2C(F)(F)F)C(C(=O)OCCOCc2ccccc2)=C(C)N1
recorded result: 0.53 µM
//
compound: Cc1cccc(CNc2nc(C)cc(NCCC(=O)NCCOc3ccccc3)n2)c1
recorded result: 0.87 µM
//
compound: COCCCN=C(N)c1ccc(NC(=O)c2ccc(C(=O)Nc3ccc(C(N)=NCCCOC)cc3)cc2)cc1
recorded result: 0.05 µM

Need IC50 for each of these compounds.
1. O=C(NCCN1CCCCC1)c1cc2cc(-c3ccccc3)ccc2n1S(=O)(=O)c1ccccc1
2. CCc1cn2c3c(cc(C(=O)N[C@@H](Cc4ccccc4)[C@H](O)CNC4CCCCC4)cc13)N(CC)S(=O)(=O)CC2
3. Cc1cc(=O)[nH]c(/N=C(/N)NOCc2ccccc2)n1
4. CC(=O)N1Cc2ccccc2C1=O
5. COC(=O)c1ccc2nc(-c3cc(-c4cccc(-c5ccccc5)c4)cnc3N)[nH]c2c1
6. CN1CCCC1CNS(=O)(=O)c1ccc(C(=O)NCC2CC2)cc1 (centres undefined)
7. Cc1cccc2[nH]c(-c3ccc(-c4cccc(CNCCNC(=O)c5ccnn5C)c4)s3)nc12

Return:
1: 1.12 µM; 2: 0.03 µM; 3: 0.42 µM; 4: 0.52 µM; 5: 0.21 µM; 6: 0.17 µM; 7: 0.22 µM

====

System: P. falciparum 3D7 growth, pLDH absorbance
Assay: blood-stage malaria parasite growth potency – strain 3D7, dose response (AID 2305)
I'd be grateful if you could share measured IC50 for these entries.
Give bare numbers, in nM.

Example entries and their recorded answers appear below.
molecule: COc1ccc2nccc([C@H](O)CN3CCC(NCc4cc(C)c5c(c4)OCCO5)CC3)c2n1
IC50 [nM]: 900
--
molecule: O=C(Cc1ccccc1)NC(c1ccco1)c1cc(Cl)c2cccnc2c1O (stereo not given)
IC50 [nM]: 690
--
molecule: CC(=O)Nc1ccc(C(=O)NC2CCN(c3ccnc4cc(Cl)ccc34)C2)cc1 (stereo not given)
IC50 [nM]: 810
--
molecule: CC[C@H]1CN2CC[C@@H]1C[C@H]2[C@H](O)c1cc(N2CCSCC2)nc2ccc(OC)cc12
IC50 [nM]: 200
--
molecule: COc1ccc(C2=C(Nc3ccc4oc5ccccc5c4c3)c3ccccc3C2=O)cc1
IC50 [nM]: 830

Need IC50 for each of these molecules.
1. Cc1cc(N[C@@H](Cc2ccccc2)C(=O)NCCOc2ccccc2)nc(NCCc2cccs2)n1
2. Cc1ccc(F)cc1-c1cc(N2CCCN(C(=O)c3ccc(Br)o3)CC2)ncn1
3. O=c1nc(C=Cc2ccc(Br)cc2)oc2ccccc12
4. NC(N)=NN=Cc1cc2ccccc2c2ccccc12

Return:
1000
1430
1050
180

Enquiry: Reported IC50, molecule Cc1[nH]c(C)c(-c2ccc(S(=O)(=O)c3ccc(Cl)cc3)cc2)c(=O)c1Cl : ____
Return: 140

====

System: P. falciparum 3D7 growth, pLDH absorbance
Test: blood-stage malaria parasite growth potency – strain 3D7, dose response (AID 2305)
Label Yes when IC50 is strictly below 700 nM; otherwise label No.

compound: CS(=O)(=O)c1ccccc1CNC(=O)c1cccc(-c2ccc(-c3nc4ccc(C(F)(F)F)cc4[nH]3)cc2)c1
experimental target: P. falciparum 3D7 growth, pLDH absorbance
classification: No
--
compound: Cc1[nH]c(C)c(-c2ccc(OCCCc3ccccn3)cc2)c(=O)c1Br
experimental target: P. falciparum 3D7 growth, pLDH absorbance
classification: Yes
--
compound: NC(=O)c1ccccc1Nc1nc(Nc2ccc(N3CCOCC3)cc2)ncc1[N+](=O)[O-]
experimental target: P. falciparum 3D7 growth, pLDH absorbance
classification: No
--
compound: Cc1cccc2[nH]c(-c3cccc(-c4cccc(NC(=O)c5cnc[nH]5)c4)c3)nc12
experimental target: P. falciparum 3D7 growth, pLDH absorbance
classification: Yes
--
compound: Cc1cc(Cl)c(Cl)cc1NC(=O)Nc1cccc(C(F)(F)F)c1
experimental target: P. falciparum 3D7 growth, pLDH absorbance
classification: No
--
compound: Cc1ncccc1-c1cccc2c(NC(=O)Nc3ccc4nccc(N5CCN(C)CC5)c4c3)cccc12
experimental target: P. falciparum 3D7 growth, pLDH absorbance
classification: Yes
--
compound: CC(=O)NCCNc1cc(N2CCc3ncnc(Nc4ccc(OCc5c(F)cccc5F)c(Cl)c4)c3C2)ncn1
experimental target: P. falciparum 3D7 growth, pLDH absorbance
classification: Yes
--
compound: COc1ccc(-c2cccc(NC(=O)c3cccc(C#N)c3)c2)cc1CN1CCCC1
experimental target: P. falciparum 3D7 growth, pLDH absorbance
classification: No

Enquiry: Consider the compound Cc1cc(N[C@@H](Cc2ccccc2)C(=O)NC2CCCC2)nc(NCCCOC(C)C)n1 . Is its IC50 strictly less than 700 nM?
Return: No

Enquiry: Consider the compound O=C(NC1CCCC1)c1ccc(N2CCC(NCc3cccc(C(F)(F)F)c3)CC2)cc1 . Is its IC50 strictly less than 700 nM?
Return: No

====

I'd be grateful if you could share measured pIC50 for these entries.
Tested on: P. falciparum 3D7 growth, pLDH absorbance
Experiment: blood-stage malaria parasite growth potency – strain 3D7, dose response (AID 2305)
Give bare numbers, as −log10 of the molar value.

Example entries and their recorded answers appear below.
compound: CCCCCCCCc1c(C)[nH]c(C)c(Br)c1=O
pIC50: 6.09
--
compound: C=CCOc1ccccc1CNCC(O)c1cccc(C(F)(F)F)c1 (stereo not drawn)
pIC50: 6.08

Need pIC50 for each of these compounds.
1. Cn1c(=O)c2cc(C(=O)NCCCN3CCCCCC3)sc2c2ccccc21
2. O=C(NCCc1ccccc1)N(Cc1ccccc1-c1ccc(CNCCc2ccccc2)cc1)C1CCN(Cc2ccccc2)CC1
3. CC(C)(C)OC(=O)[C@H](CC(N)=O)NC(=O)c1ccc(-c2ccc(-c3nc4ccc(C(F)(F)F)cc4[nH]3)s2)cc1
4. CC(C)C(C(=O)n1ncc2c3c(N)nc(N)nc3ccc21)C(C)C
5. CC(Oc1ccc(NC(=O)c2cccs2)cc1)C(=O)c1ccc(Cl)cc1 (stereo not drawn)
6. CCn1cnc2c(Nc3cccc([N+](=O)[O-])c3)nc(N3CCC(N4CCCCC4)CC3)nc21

Return:
6.16
6.14
6.57
6.19
6.11
6.02

Need pIC50 for each of these compounds.
1. COc1ccc(C(O)CNC(C)CCc2ccc(F)cc2)cc1C(F)(F)F (stereo not drawn)
2. CCCc1cc(NC2CCN(C)CC2)nc(Nc2ccc(C)cc2)n1
3. O=C(NCCCCN1CCC(c2ccc(OC(F)(F)F)cc2)CC1)c1ccc(NC(=O)c2ccc(Cl)cc2)cc1

Return:
[6.12, 6.05, 6.20]

Need pIC50 for each of these compounds.
1. COCCNCc1ccc(-c2ccccc2CNC2CCN(Cc3ccccc3)CC2)cc1
2. COc1cccc(NC(=O)c2nc(N3CCN(c4ccncc4)CC3)ccc2Cl)c1

Return:
[6.01, 6.04]

====

System: P. falciparum 3D7 growth, pLDH absorbance
Assay: blood-stage malaria parasite growth potency – strain 3D7, dose response (AID 2305)
I'd be grateful if you could share measured pIC50 for these entries.
Give bare numbers, as −log10 of the molar value.

Example entries and their recorded answers appear below.
compound: COc1ccc(Nc2nccc(N3CCC(NC(=O)Nc4cccc(C(C)=O)c4)C3)n2)cc1 (stereo not given)
pIC50: 6.09

compound: CCNc1cc(C)nc(Nc2ccc(NC(=O)C3CCCC3)cc2)n1
pIC50: 5.95

compound: CCN(CC)c1ccccc1CNC(=O)c1cc(Cl)c(N)cc1OC
pIC50: 6.68

compound: Cc1cc(NC(=O)c2cccs2)ccc1OC1CCN(Cc2ccccc2)C1 (stereo not given)
pIC50: 6.05

Here's the next entry for you.
Enquiry: Reported pIC50, compound CC(CCCC(=O)Nc1ccc(CC(C)NCCc2cccc(Cl)c2)cc1)NCCc1cccc(Cl)c1 (stereo not given) : ____
Return: 6.21
